test system: MT4; assay: In vitro concentration required to cause death of uninfected MT-4 cell; assay type: functional; conditions: Homo sapiens
MEASUREMENT_LABEL: CC50

COMPOUND: NCCCCOC(=O)OCC1OC(n2ccc(N)nc2=O)CS1 (stereo unspecified)
CC50: > 218 µM

COMPOUND: CCCCNC(=O)OCC1OC(n2ccc(N)nc2=O)CS1 (stereo unspecified)
CC50: > 283 µM

COMPOUND: CCCNC(=O)OCC1OC(n2ccc(N)nc2=O)CS1 (stereo unspecified)
CC50: > 285 µM

Request: Which measured CC50 value corresponds to NCCCNC(=O)OCC1OC(n2ccc(N)nc2=O)CS1 (stereo unspecified) ?
Response: > 282 µM

Request: Entry to check: Nc1ccn(C2CSC(COC(=O)NCCCO)O2)c(=O)n1 (stereo unspecified)
Response: > 281 µM

Request: Nc1ccn(C2CSC(COC(=O)NCP(=O)(O)O)O2)c(=O)n1 (stereo unspecified) , same question.
Response: > 322 µM

Origin of measurements: ChEMBL document CHEMBL1136122
